Test system: CCRF-CEM
Experiment: NCI tumour cell line growth inhibition, 48 h
Calls of active or inactive are those of the source. No stated cut-off is given here; in the data, active = GI50 up to about 1.1 µM and inactive = higher.
Field 'call' accepts yes (1) (active), no (0) (inactive)

// known answers, use as guide
C#CCOC(=O)C=[N+]=[N-]    no (0)
Nc1ccc(Oc2ccc(C34CC5C6CC7(c8ccc(Oc9ccc(N)cc9)cc8)CC5C(C3)C(C7)C6C4)cc2)cc1    no (0)
Cc1cc(-c2ccc(C(=O)C(c3ccccc3)(c3ccccc3)c3ccccc3)[nH]2)on1    no (0)
CSC(=S)Nc1cccc(C)n1    no (0)

Next item in the queue.
Task: Dear all, I need the recorded test outcome for CC1=Nc2ccccc2SC(c2c(Cl)cccc2Cl)C1 (stereo not given) , thank you.
Output: yes (1)

----------
Tested on: NCI-H460
Test: NCI tumour cell line growth inhibition, 48 h
The source made the active and inactive calls. Cut-off read from the data, not from the text of the source: active = GI50 up to about 1.1 µM and inactive = higher.
Pick one: active, inactive

Worked set:
CCCP1(=O)C=C(C)C(=C(Cl)Cl)C(C)=C1 (stereo not drawn)    inactive
CC1=Nc2ccccc2SC(c2c(Cl)cccc2Cl)C1 (stereo not drawn)    inactive

Now for another entry.
Task: Per the records of this test, what outcome belongs to S=C(N/N=C(/c1ccccc1)c1ccccn1)N1CCCCC1 ?
Output: active

----------
Tested on: SNB-19
Assay: NCI tumour cell line growth inhibition, 48 h
The source made the active and inactive calls. Cut-off read from the data, not from the text of the source: active = GI50 up to about 1.1 µM and inactive = higher. Peptide text beside a SMILES is read from it. * marks the point of attachment. Boc = CC(C)(C)OC(=O)*; OBn = c1ccc(CO*)cc1
property_name: GI50

Solved cases (5 shown):
CC(C)CC(NC(=O)OC(C)(C)C)C(=O)NC(CC(=O)OCc1ccccc1)C(N)=O (stereo not drawn) (Boc-Leu-Asp(OBn)-NH2; configuration not given here)    > 100 µM (inactive)
COc1cccc(N/C(C)=C2/CCOC2=O)c1    > 10 µM (inactive)
Cc1sc2c(c1C)/C(=N\O)c1cccn1-2    23.3 µM (inactive)
CC[n+]1[b-](C(C)(C)C)n(/N=C(\C)C(C)(C)C)[b-](C(C)(C)C)[n+]1CC    > 100 µM (inactive)
O=[N+]([O-])c1ccc(Sc2c3ccccc3nc3ccccc23)nc1    18.4 µM (inactive)

Task: Report measured GI50; entry is O=CC[C@H]1C(=O)C[C@@H]2CCC[C@@H]21
Output: > 100 µM (inactive)

Task: Name the recorded GI50 of the item NC(=S)N/N=C/c1nccc2ccccc12 in your answer.
Output: 0.948 µM (active)

Task: For the compound Cc1cc(-c2ccc(C(=O)C(c3ccccc3)(c3ccccc3)c3ccccc3)[nH]2)on1 , give its measured GI50 value.
Output: 19 µM (inactive)

Task: Report GI50 for C=C1C(=O)C=C[C@]2(C)CC[C@H]3C(=C)C(=O)O[C@@H]3[C@@H]12
Output: 14.6 µM (inactive)

Task: Kindly indicate its recorded GI50. Item: CC(=O)Nc1cc2c(cc1O)CC[C@@H]1[C@@H]2CC[C@]2(C)[C@@H](O)CC[C@@H]12
Output: > 100 µM (inactive)

Task: Supply reported GI50 belonging to this compound: COC(C)(C)C1=CCC(C)CC1 (stereo unspecified)
Output: > 100 µM (inactive)

Task: Write down GI50 measured for item Cc1cc2c3c(c1)S(=O)(=O)c1cc(Cl)ccc1N3CCC2
Output: > 100 µM (inactive)

----------
Tested on: Hs-578T
Assay: NCI tumour cell line growth inhibition, 48 h
Active and inactive are the calls of the source. Cut-off read from the data, not from the text of the source: active = GI50 up to about 1.1 µM and inactive = higher.
property_name: GI50

CC1=CC[C@@H]2[C@@H](CC[C@@]2(C)O)C(C)(C)[C@H]1CC[C@@H]1[C@@]2(C)CCC(=O)C(C)(C)O[C@@H]2CC[C@]1(C)O    22.8 µM (inactive)

Task: State its GI50 for this compound: CN(C)CCCCN1c2ccccc2Sc2cc(N=[N+]=[N-])ccc21
Output: 3.03 µM (inactive)

Task: Consider the compound CC[n+]1[b-](C(C)(C)C)n(/N=C(\C)C(C)(C)C)[b-](C(C)(C)C)[n+]1CC and give its recorded GI50.
Output: > 100 µM (inactive)

Task: Kindly indicate its recorded GI50. Item: C1CCCCC2(CCCCCCCCC3(CCC1)OCCO3)OCCO2
Output: > 100 µM (inactive)

Task: // fetch GI50 given entry COC(=O)C(Cc1ccccc1I)C1=CCC2(CC1)OCCO2 (stereo not drawn)
Output: 26.6 µM (inactive)

Task: Give reported GI50 value for O=C1CCCc2ccc3c(c21)CC1(Cc2cc4c(cc2C1)CCCC4)C3
Output: 30.4 µM (inactive)

Task: Entry Cc1ccc(/C=C2\CN(C)CC3C(c4ccc(C)cc4)=C(C#N)C(=O)NC23)cc1 (stereo not drawn) needs its GI50 filled in; supply it.
Output: > 50 µM (inactive)

Task: Tell me its GI50 given O=C(O)/C(=C/C(=O)c1ccc(Cl)cc1)NNc1ccc([N+](=O)[O-])cc1[N+](=O)[O-] as the entry.
Output: 31.2 µM (inactive)

Task: Recall and state the measured GI50 for Cc1sc2c(c1C)/C(=N\O)c1cccn1-2 .
Output: 16.9 µM (inactive)

Task: Identify the reported GI50 for the following entry. CCOC(=O)C1CCC(=O)N1C(=O)c1cccc(Cl)c1 (stereo not drawn)
Output: > 100 µM (inactive)

Task: Name the recorded GI50 of the item COc1ccc(C(=O)CC(c2ccc(OC)c(OC)c2)c2c(O)oc3ccccc3c2=O)cc1OC (stereo not drawn) in your answer.
Output: > 100 µM (inactive)

Task: Please give measured GI50 of the following entry: COc1ccc(N2C(=O)CC(=O)N(NC(=O)C(C)Oc3ccccc3C)C2=S)cc1 (stereo not drawn)
Output: > 100 µM (inactive)

----------
Test system: Malme-3M
Experiment: NCI tumour cell line growth inhibition, 48 h
Active and inactive are the calls of the source. Cut-off read from the data, not from the text of the source: active = GI50 up to about 1.1 µM and inactive = higher.
Select the matching outcome among active, inactive

Task: Kindly provide the recorded test outcome for the following compound: COc1cc(CCNC2=CC(=O)c3cccnc3C2=O)ccc1O
Output: active

Task: For COC(=O)C1CC(C(=O)OC)c2nc3cc(C)c(C)cc3nc21 (stereo not given) , what call appears in the results of this test?
Output: inactive

Task: Check the results log: what was the call for Cc1nn(C(=O)c2ccccc2O)c2c1C(c1ccc([N+](=O)[O-])cc1)SC(=N)N2 (stereo not given) ?
Output: inactive

Task: Entry COc1ccc(CNc2nc3cc(C(F)(F)F)ccc3nc2C)cc1OC : call = ?
Output: inactive

Task: I would be grateful if you could indicate the recorded call for CC(=O)OCCOc1cc2c([nH]c3ccccc32)c(C)c2cccc1-2 .
Output: inactive

Task: What is the recorded call for this compound in the test? CN(C)CCCNc1ccc2nnn3c4ccc(OC(=O)c5ccccc5)cc4c(=O)c1c23
Output: inactive

Task: Hi team, can someone confirm the assay call for CS/C(=N\S(=O)(=O)c1ccc(Cl)cc1)NCCN/C(=N/S(=O)(=O)c1ccc(Cl)cc1)SC ?
Output: inactive

Task: For CCC1(CC)C(=O)N(C(=O)c2ccc(C)cc2)N(C(=O)c2ccc(C)cc2)C1=O , which call appears in the assay record?
Output: inactive

Task: I would be grateful if you could indicate the recorded call for COC(=O)C1=CCON(c2ccccc2)C1c1ccccc1 (stereo not given) .
Output: inactive

Task: Write down the call the test reported for this compound. Item: O=C1CCCc2ccc3c(c21)CC1(Cc2cc4c(cc2C1)CCCC4)C3
Output: inactive

----------
Test system: HL-60
Experiment: NCI tumour cell line growth inhibition, 48 h
Calls of active or inactive are those of the source. No stated cut-off is given here; in the data, active = GI50 up to about 1.1 µM and inactive = higher.
property_name: GI50

Worked examples, 5 compounds total:
CC1CC(C#N)=C2NCCN2C1=O (stereo unspecified)    > 100 µM (inactive)
O=Cc1[nH]c(=O)[nH]c(=O)c1C(=O)O    > 100 µM (inactive)
COc1cc(CNC(=O)CCCCCCCCCCSSCCCCCCCCCCC(=O)NCc2ccc(O)c(OC)c2)ccc1O    > 10 µM (inactive)
COc1ccc2nc3ccccc3c(NCCCCCCN(CCCl)CCCl)c2c1    0.0122 µM (active)
O=C1C2=C(c3ccccc31)C(c1ccccc1)NC(S)=N2 (stereo unspecified)    17.9 µM (inactive)

Next compound, GI50 to be filled in.
Task: Please list GI50 recorded for the compound C/C=C/[C@@H]1[C@H]2C(=O)[C@]3(Cl)[C@@H](/C=C/C)[C@@H]3C(=O)[C@@]12Cl
Output: > 100 µM (inactive)

----------
Overview of reported GI50 across a group of compounds:
System: OVCAR-8
Experiment: NCI tumour cell line growth inhibition, 48 h
Calls of active or inactive are those of the source. No stated cut-off is given here; in the data, active = GI50 up to about 1.1 µM and inactive = higher.

COc1ccccc1-n1c(C)nc2ccccc2c1=O    > 100 µM (inactive)

Task: Specify reported GI50 for the compound shown: [N-]=[N+]=C(C(=O)C(=[N+]=[N-])C(=O)c1ccccc1)C(=O)c1ccccc1
Output: > 100 µM (inactive)

Task: Report GI50, nothing else, for this compound: CCCCCCCCCCCC(=O)OCCOCCOCCOCCOCCOCc1ccccc1
Output: > 100 µM (inactive)

Task: Supply reported GI50 belonging to this compound: O=c1c2c(sc3ccccc13)NCN(CCc1ccccc1)C2
Output: 28.7 µM (inactive)

Task: Give GI50 for the following compound: Cc1c2ccnc(C(F)(F)F)c2cc2c1[nH]c1ccccc12
Output: 110 µM (inactive)

Task: Give the reported GI50 for this compound. O=c1[nH]c2nccnc2c2c([N+](=O)[O-])cccc12
Output: > 100 µM (inactive)

Task: Return the recorded GI50 value; entry: CCOc1cc2c(OCc3ccccc3)cc3c4cc(OC)c(OC)cc4c[n+](C)c3c2cc1OC
Output: 2.19 µM (inactive)

Task: Output measured GI50 for this item: CC(C)C(=O)NC(=S)Nc1ccc([N+](=O)[O-])cc1C#N
Output: > 100 µM (inactive)

The measured values listed here are drawn from ChEMBL document CHEMBL1201862.
